tested_on: T1, TGFβ1 (R&D Systems)
T1 construct: also called TGFB1
test_method_notes: SPR full titration
measurement_name: Kd (nM)
Numbers only, in nM.

Please review the following examples before continuing.
Chimera-SL501-VH/CanSL501-VL-hybrid (antibody, V domains shown, constant regions not restated) VH: EVQLVESGGGVVQPGRSLRLSCAASGFTFSSYGMHWVRQAPGKELEWVAVISYDGSIKYYADSVKGRFTISRDNSKNTLYLQMNSLRAEDTAVYYCARTGEYSGYDTDPQYSWGQGTTVTVSS VL: EIVLTQSPSSLSASVGDRVTITCRASQGIGDDLGWYQQKPGQAPKLLIYGTSTLQSGVPSRFSGSGSGTDFSFTISSLEPEDVAVYYCLQDSNYPLTFGGGTK | 0.0428
Can-SL501_VH2/Chimera-SL501-VL (antibody, V domains shown, also called heterochimeric SL501) VH: EVQLVESGGDLVKPGGSLRLSCVASGFTFSSYGMHWVRQAPGKGLQWVAVISYDGSIKYYADAVKGRFTISRDNAKNTLYLQMNSLRAEDTAMYYCAKTGEYSGYDTDPQYSWGQGTLVTVSS VL: EIVLTQSPSSLSASVGDRVTITCRASQGIGDDLGWYQQKPGKAPILLIYGTSTLQSGVPSRFSGSGSGTDFTLTINSLQPEDFATYYCLQDSNYPLTFGGGTK | 1090

Moving on to another binder below.
Ask: Data request, read-out Kd, for Chimera-SL501-VH/Can-SL501-VL2 (antibody, V domains shown, also called heterochimeric SL501) VH: EVQLVESGGGVVQPGRSLRLSCAASGFTFSSYGMHWVRQAPGKELEWVAVISYDGSIKYYADSVKGRFTISRDNSKNTLYLQMNSLRAEDTAVYYCARTGEYSGYDTDPQYSWGQGTTVTVSS VL: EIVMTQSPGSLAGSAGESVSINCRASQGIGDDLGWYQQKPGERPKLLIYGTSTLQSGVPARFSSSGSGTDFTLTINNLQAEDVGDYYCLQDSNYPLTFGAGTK
Result: 0.000192
